Test system: PC-3 prostate
assay_info: NCI tumour cell line growth inhibition, 48 h
measured_endpoint: TGI

>  <smiles_repr>
O=C(Nc1cc[c]([Sb](=[O])([OH])[OH])cc1)c1ccccc1

>  <TGI>
> 100 µM

$$$$

Input line: Consider the compound `O=c1oc2ccccc2c(O)c1C(c1ccc(/C=C/c2ccccc2)cc1)c1c(O)c2ccccc2oc1=O` . State its measured TGI.
Output line: > 100 µM

Input line: Consider the compound `COc1ccc(-c2ccc(/C=N/n3c(COc4ccc(Cl)cc4Cl)nn(CN4CCN(C)CC4)c3=S)o2)c([N+](=O)[O-])c1` . State its measured TGI.
Output line: 76.8 µM

Input line: Consider the compound `NC(=O)c1ccc2c(-c3ccnc(NCCCO)n3)c(-c3ccc(F)cc3)nn2c1` . State its measured TGI.
Output line: > 25 µM
